Task for the reader: assign each of the following compounds its reported IC50.
Protein target, amino acids: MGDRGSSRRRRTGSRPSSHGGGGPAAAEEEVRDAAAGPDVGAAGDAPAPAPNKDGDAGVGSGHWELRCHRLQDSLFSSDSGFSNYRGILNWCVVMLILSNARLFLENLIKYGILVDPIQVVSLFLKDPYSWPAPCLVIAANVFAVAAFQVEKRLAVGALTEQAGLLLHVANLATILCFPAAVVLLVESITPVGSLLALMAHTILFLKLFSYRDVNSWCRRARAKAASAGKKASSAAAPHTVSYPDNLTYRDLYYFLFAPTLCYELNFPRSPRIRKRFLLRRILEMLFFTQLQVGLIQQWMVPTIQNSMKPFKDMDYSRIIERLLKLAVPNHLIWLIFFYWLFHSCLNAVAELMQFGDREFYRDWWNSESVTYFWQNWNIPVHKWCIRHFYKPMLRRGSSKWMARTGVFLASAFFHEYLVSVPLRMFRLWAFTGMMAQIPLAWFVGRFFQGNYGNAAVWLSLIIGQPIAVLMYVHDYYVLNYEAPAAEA
Phrase the answer as number then unit, nothing more needed.

So what's the measured IC50 for this one? C=CCN(CC(=O)Nc1ccc(N2CCN(C(=O)Nc3c(Cl)cc(OC)cc3OC)CC2)cc1)c1ccc(C)cc1C
13.8 nM

So what's the measured IC50 for this one? CCCCC(=O)Nc1ccc(N2CCN(C(=O)Nc3c(Cl)cccc3Cl)CC2)cc1
19.1 nM

So what's the measured IC50 for this one? O=C(CCCc1ccccc1)Nc1ccc(N2CCN(C(=O)Nc3c(Cl)cccc3C(F)(F)F)CC2)cc1
16.2 nM

So what's the measured IC50 for this one? O=C(CN1CCCCC1)Nc1ccc(C2CCN(C(=O)Nc3c(Cl)cccc3Cl)CC2)cc1
794 nM

So what's the measured IC50 for this one? Cc1ccc(NCCC(=O)Nc2ccc(N3CCN(C(=O)Nc4c(Cl)cccc4Cl)CC3)cc2)c(C)c1
17.4 nM

So what's the measured IC50 for this one? O=C(CCCc1ccccc1)Nc1ccc(N2CCN(C(=O)Nc3ccccc3Br)CC2)cc1
126 nM

So what's the measured IC50 for this one? Cc1ccc(CC(=O)Nc2ccc(N3CCN(S(=O)(=O)c4ccccc4C)CC3)cc2)c(C)c1
2240 nM

So what's the measured IC50 for this one? Cc1ccc(CNCC(=O)Nc2ccc(N3CCN(C(=O)Nc4c(Cl)cccc4Cl)CC3)cc2)c(C)c1
75.9 nM

====

Target sequence: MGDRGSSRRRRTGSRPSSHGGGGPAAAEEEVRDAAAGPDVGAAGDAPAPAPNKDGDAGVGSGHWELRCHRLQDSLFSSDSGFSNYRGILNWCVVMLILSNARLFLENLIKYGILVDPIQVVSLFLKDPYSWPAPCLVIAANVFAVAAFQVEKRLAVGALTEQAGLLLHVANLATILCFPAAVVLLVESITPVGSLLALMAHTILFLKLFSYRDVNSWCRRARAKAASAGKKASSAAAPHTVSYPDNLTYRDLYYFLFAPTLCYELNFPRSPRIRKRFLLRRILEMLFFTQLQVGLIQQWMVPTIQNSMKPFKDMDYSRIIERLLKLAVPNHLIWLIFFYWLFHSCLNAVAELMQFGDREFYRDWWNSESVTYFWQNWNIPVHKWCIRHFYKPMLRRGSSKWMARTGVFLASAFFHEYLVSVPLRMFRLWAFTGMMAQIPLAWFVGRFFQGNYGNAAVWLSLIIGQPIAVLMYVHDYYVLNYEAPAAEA
property_label: IC50
Phrase the answer as number then unit, nothing more needed.

So what's the measured IC50 for this one? O=C(CC(c1ccc(Cl)cc1)c1ccc(Cl)cc1)c1ccc(N2CCN(C(=O)Nc3c(Cl)cccc3Cl)CC2)cc1
112 nM

So what's the measured IC50 for this one? O=C(COC(=O)c1ccccc1)Nc1ccc(N2CCN(C(=O)Nc3c(Cl)cc(CN4CCCC4)cc3Cl)CC2)cc1
21.9 nM

So what's the measured IC50 for this one? CN(C)C(=O)CCC(=O)Nc1ccc(N2CCN(C(=O)Nc3c(Cl)cccc3Cl)CC2)cc1
3390 nM

So what's the measured IC50 for this one? O=C(CCCc1ccccc1)Nc1ccc(N2CCN(C(=O)Cc3c(Cl)cccc3Cl)CC2)cc1
35.5 nM

====

property_label: melting point

So what's the measured melting point for this one? Cc1ccc(NCC(=O)Nc2ccc(N3CCN(C(=O)Nc4c(Cl)cc(O)cc4Cl)CC3)cc2)c(C)c1
202 to 203 °C

So what's the measured melting point for this one? CC(=O)c1cc(Cl)c(NC(=O)N2CCC(c3ccc(NC(=O)CCCc4ccccc4)cc3)CC2)c(Cl)c1
160 to 161 °C

So what's the measured melting point for this one? CN(CC(=O)Nc1ccc(N2CCN(C(=O)Nc3c(Cl)cccc3Cl)CC2)cc1)C(=O)Cc1ccccc1
253 to 255 °C

So what's the measured melting point for this one? CN(C)CC(=O)Nc1ccc(N2CCN(C(=O)Nc3c(Cl)cccc3Cl)CC2)cc1
245 to 246 °C

====

Task for the reader: assign each of the following molecules its reported melting point.

So what's the measured melting point for this one? CC(C)NC(=O)N(C)CC(=O)Nc1ccc(N2CCN(C(=O)Nc3c(Cl)cccc3Cl)CC2)cc1 [Compound 14]
217 to 219 °C

So what's the measured melting point for this one? O=C(CCNCc1ccc(F)cc1)Nc1ccc(N2CCN(C(=O)Nc3c(Cl)cccc3Cl)CC2)cc1 [Compound 174]
192 to 193 °C

So what's the measured melting point for this one? COc1ccc(COC(=O)CCCC(=O)Nc2ccc(N3CCN(C(=O)Nc4c(Cl)cc(CN5CCCCC5)cc4Cl)CC3)cc2)cc1 [Compound 285]
178 to 179 °C

So what's the measured melting point for this one? COc1ccc(CCNC(=O)c2ccc(N3CCN(C(=O)Nc4c(Cl)cc(CN5CCCC5)cc4Cl)CC3)cc2F)cc1 [Compound 246]
235 to 237 °C

====

Task for the reader: assign each of the following compounds its reported melting point.

So what's the measured melting point for this one? O=C(CNC1CCCCC1)Nc1ccc(N2CCN(C(=O)Nc3c(Cl)cccc3Cl)CC2)cc1
185 to 187 °C

So what's the measured melting point for this one? O=C(CNCc1ccc(Cl)cc1)Nc1ccc(N2CCN(C(=O)Nc3c(Cl)cccc3Cl)CC2)cc1
183 to 184 °C

So what's the measured melting point for this one? O=C(CCN(Cc1ccc(F)cc1)S(=O)(=O)c1ccccc1[N+](=O)[O-])Nc1ccc(N2CCN(C(=O)Nc3c(Cl)cccc3Cl)CC2)cc1
215 to 216 °C

So what's the measured melting point for this one? O=C(CCCc1ccccc1)Nc1ccc(C2CCN(C(=O)Nc3c(Cl)cc(C(=O)O)cc3Cl)CC2)cc1
152 to 153 °C

====

property_label: melting point

So what's the measured melting point for this one? CS(=O)(=O)N1CCN(CC(=O)Nc2ccc(N3CCN(C(=O)Nc4c(Cl)cccc4Cl)CC3)cc2)CC1
232 to 234 °C

So what's the measured melting point for this one? CS(=O)(=O)N1CCN(CCC(=O)Nc2ccc(N3CCN(C(=O)Nc4c(Cl)cccc4Cl)CC3)cc2)CC1
250 to 252 °C

So what's the measured melting point for this one? COc1cc(Cl)c(NC(=O)N2CCN(c3ccc(NC(=O)CCCc4ccccc4)cc3)CC2)c(OC)c1
208 to 210 °C

====

property_label: melting point

So what's the measured melting point for this one? Cc1ccc(NCC(=O)Nc2ccc(N3CCN(C(=O)Nc4c(Cl)cccc4Cl)CC3)cc2)c(C)c1
248 to 249 °C

So what's the measured melting point for this one? Cc1ccc(CNCC(=O)Nc2ccc(N3CCN(C(=O)Nc4c(Cl)cccc4Cl)CC3)cc2)c(C)c1
163 to 165 °C

So what's the measured melting point for this one? COc1ccc(CC(=O)Nc2ccc(N3CCN(C(=O)Nc4c(Cl)cc(O)cc4Cl)CC3)cc2)cc1
183 to 184 °C

So what's the measured melting point for this one? COc1ccc(CNC(=O)c2ccc(N3CCN(C(=O)Nc4c(Cl)cc(CN5CCCC5)cc4Cl)CC3)cc2F)cc1
176.5 to 178 °C

So what's the measured melting point for this one? CC1CCCN1CC(=O)Nc1ccc(N2CCN(C(=O)Nc3c(Cl)cccc3Cl)CC2)cc1 (stereo not drawn)
220 to 222 °C

So what's the measured melting point for this one? C=CCN(CCC(=O)Nc1ccc(N2CCN(C(=O)Nc3c(Cl)cccc3Cl)CC2)cc1)c1ccc(C)cc1C
226 to 227 °C

So what's the measured melting point for this one? CC(C)C(=O)N(C)CC(=O)Nc1ccc(N2CCN(C(=O)Nc3c(Cl)cccc3Cl)CC2)cc1
232 to 234 °C

So what's the measured melting point for this one? O=C(CN1CCCC1)Nc1ccc(N2CCN(C(=O)Nc3c(Cl)cccc3Cl)CC2)cc1
214 to 216 °C

So what's the measured melting point for this one? COc1cc(Cl)c(NC(=O)N2CCN(c3ccc(NC(=O)CNc4ccc(C)cc4C)cc3)CC2)c(Cl)c1
175 to 176 °C
